- measured.target: N-terminal Xaa-Pro-Lys N-methyltransferase 1 (Homo sapiens) (UniProt Q9BV86)
- Sequence (Q9BV86 whole entry, looked up): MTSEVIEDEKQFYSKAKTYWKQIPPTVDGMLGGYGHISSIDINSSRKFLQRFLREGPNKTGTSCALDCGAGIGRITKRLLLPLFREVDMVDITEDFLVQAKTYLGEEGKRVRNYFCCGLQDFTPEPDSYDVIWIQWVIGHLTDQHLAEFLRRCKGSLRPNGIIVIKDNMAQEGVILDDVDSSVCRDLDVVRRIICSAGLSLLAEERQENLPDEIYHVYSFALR
- assay.explanation: Primary qHTS for Inhibitors of N-terminal methyltransferase 1 (NTMT1): MTaseGlo Assay; further: nearly all actives have a fitted effect of over 65% in size; further: potency means the concentration at half of the fitted maximal effect
- run.parameters: NTMT1 MTase-Glo SAH luminescence, purified enzyme; series mostly up to 114 µM
About 1,500 (2.5%) of roughly 59,000 compounds were called active. About 10% were inconclusive and are not listed. Only a selection was taken, and actives are over-represented in it overall.
property: Potency

Field: example entries. Status: answers known.
CCN(CC)CCNC(=O)c1c(C)[nH]c(C=C2C(=O)Nc3ccc(F)cc32)c1C: 44.1 µM (active)
CCOc1cc2[nH]c(=O)n(Cc3ccc(C(=O)NCCN(CC)CC)cc3)c(=O)c2cc1OCC: inactive
Cc1cc(-c2nnc3n2CCCCC3)c(C)n1-c1cccc(Cl)c1: inactive
CCN(CC)CCNC(=O)c1cc(S(C)(=O)=O)ccc1OC: inactive

Alright, here's another compound for you.
Problem: Form field: Potency recorded for COc1cc(NC(=O)c2cc3ccc4cccnc4c3[nH]2)cc(OC)c1OC with N-terminal Xaa-Pro-Lys N-methyltransferase 1 (Homo sapiens) (UniProt Q9BV86) (enter value)
Result: inactive
